Examples of molecules with documented Kd follow.
Target: UniProtKB Q9UHD8
Sequence (Q9UHD8 whole entry): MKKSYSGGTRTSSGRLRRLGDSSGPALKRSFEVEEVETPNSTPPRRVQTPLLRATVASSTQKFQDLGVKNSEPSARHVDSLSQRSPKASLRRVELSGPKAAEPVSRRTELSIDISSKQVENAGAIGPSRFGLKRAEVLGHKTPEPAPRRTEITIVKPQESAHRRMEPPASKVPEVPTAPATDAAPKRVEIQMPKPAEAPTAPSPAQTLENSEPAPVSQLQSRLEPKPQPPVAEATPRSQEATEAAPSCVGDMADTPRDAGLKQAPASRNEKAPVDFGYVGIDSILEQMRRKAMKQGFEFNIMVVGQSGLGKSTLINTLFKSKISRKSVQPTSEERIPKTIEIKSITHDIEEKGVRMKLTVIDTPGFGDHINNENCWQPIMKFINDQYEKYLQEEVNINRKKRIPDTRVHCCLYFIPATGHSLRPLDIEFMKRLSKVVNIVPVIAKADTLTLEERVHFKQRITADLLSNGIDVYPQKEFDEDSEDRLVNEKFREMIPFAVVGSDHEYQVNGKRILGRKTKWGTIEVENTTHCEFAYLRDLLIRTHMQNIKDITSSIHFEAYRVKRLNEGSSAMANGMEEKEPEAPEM
Active and inactive are the calls of the source.
Measure: Kd

Molecule | Value reported
CN1C/C=C/CCOc2cccc(c2)-c2ccnc(n2)Nc2cccc(c2)C1 [ZOTIRACICLIB] | > 30 µM (inactive)
CN1CCN(CCOc2cc(OC3CCOCC3)c3c(Nc4c(Cl)ccc5c4OCO5)ncnc3c2)CC1 [SARACATINIB] | > 30 µM (inactive)
Cc1cccc(-c2nn3c(c2-c2ccnc4ccc(C(N)=O)cc24)CCC3)n1 [GALUNISERTIB] | > 30 µM (inactive)
CN(C[C@@H]1COCCO1)S(=O)(=O)Nc1ccc2ccc3ncc(-c4cnn(C)c4)cc3c(=O)c2c1 [MK-2461] | > 30 µM (inactive)
Cc1nc2cc(-n3ncc(C(=O)c4cc5ccccc5[nH]4)c3N)ccc2[nH]1 [FGFR INHIBITOR DEBIO 1347] | > 30 µM (inactive)
C[C@H]1CNCCCN1S(=O)(=O)c1cccc2cncc(F)c12 | > 30 µM (inactive)
C=CC(=O)N1CCC[C@H](n2c(=O)n(-c3ccc(Oc4ccccc4)cc3)c3c(N)ncnc32)C1 | > 30 µM (inactive)
CC(=O)c1cnc2ccc(-c3cc(Cl)c(O)c(Cl)c3)nc2c1N[C@H]1CC[C@H](CN(C)C)CC1 | > 30 µM (inactive)
